method_description: Cmax in healthy male human at 200 mg
Format: ADME, organism-based
Parameters: dose 200 mg
condition_notes: in vivo
reported_endpoint: Cmax (ng/mL)
# number only, unit ng/mL dropped from output

Q) // returns reported Cmax for input `CONC(=O)Nc1ccc(-c2sc3c(c2CN(C)Cc2ccccc2)c(=O)n(-c2ccccc2)c(=O)n3Cc2c(F)cccc2F)cc1`
A) 274

###

Target protein (sequence): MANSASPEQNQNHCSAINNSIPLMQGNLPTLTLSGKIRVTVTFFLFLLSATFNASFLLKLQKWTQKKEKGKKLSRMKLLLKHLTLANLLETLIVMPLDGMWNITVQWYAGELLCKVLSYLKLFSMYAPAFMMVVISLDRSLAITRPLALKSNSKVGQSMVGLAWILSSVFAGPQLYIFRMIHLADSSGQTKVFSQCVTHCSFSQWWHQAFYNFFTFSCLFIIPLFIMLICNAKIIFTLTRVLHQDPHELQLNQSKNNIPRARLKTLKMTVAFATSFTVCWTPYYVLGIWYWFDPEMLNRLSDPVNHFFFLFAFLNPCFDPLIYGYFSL
pKi: −log10 of the molar value.
pKi vs 8: at or above is YES, below is NO.

Q) Check the entry `COc1cccc(-c2c(C)n(Cc3c(F)cccc3S(C)(=O)=O)c(=O)n(C[C@H](N)c3ccccc3)c2=O)c1F` : does pKi equal or exceed 8?
A) YES

Q) Now the compound COc1cccc(-c2c3n(c(=O)n(C[C@H](N)c4ccccc4)c2=O)C(c2ccccc2F)CS3)c1F (stereo partly drawn)
A) NO

Q) Same lookup for `Cc1c(-c2ccccc2F)c(=O)n(C[C@H](N)c2ccccc2)c(=O)n1Cc1ccccc1F` , please.
A) NO

Q) Also `COc1cccc(-c2nn(Cc3c(F)cccc3C(F)(F)F)c(=O)n(C[C@H](N)c3ccccc3)c2=O)c1Cl` ?
A) YES

Q) What about this compound? COc1cccc(-c2c(C)n(Cc3c(F)cccc3[S+](C)[O-])c(=O)n(C[C@H](N)c3ccccc3)c2=O)c1F (stereo partly drawn)
A) YES

Q) Same again, this time with `N[C@@H](Cn1c(=O)c(-c2ccccc2F)c2n(c1=O)[C@@H](c1ccccc1)CS2)c1ccccc1`
A) NO

Q) Entry COc1cccc(-c2c(C)n(Cc3c(F)cccc3F)c(=O)n(CC(C)(N)c3ccccc3)c2=O)c1F (stereo not drawn) please
A) NO

###

method_description: Oral bioavailability in rat
Type: ADME, organism-based
condition_notes: in vivo
reported_endpoint: bioavailability (%)
# value in %; strip the unit string

Q) # bioavailability lookup, item `CCn1cc(CN2CCN(c3cccc4[nH]c(-c5ccc(C(C)(C)C)cc5)nc34)CC2)c(=O)[nH]c1=O`
A) 72

###

measured_on: Gonadotropin-releasing hormone receptor (Macaca mulatta)
Sequence (Q8SPZ1 whole entry): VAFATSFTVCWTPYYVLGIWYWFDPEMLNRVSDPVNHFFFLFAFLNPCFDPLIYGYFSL
reported_endpoint: Ki (nM)
Kindly answer with a numeric value in nM, unit omitted.

Q) Fill blank: measured Ki of the compound `Cc1cc(-c2c(OCC[C@@H]3CCN3)c3cc(C(=O)Nc4ccncn4)c(Cl)cc3[nH]c2=O)cc(C)c1C` is ____.
A) 0.5

###

method_description: AUC (0 to 8 hrs) in healthy male human at 10 mg
Format: ADME, organism-based
Parameters: dose 10 mg, time < 8 hr
condition_notes: plasma
reported_endpoint: AUC(0-t) at 8 h (ng·h/mL)
All answers are understood in ng·h/mL, so give the number only.

Q) Data request, read-out AUC(0-t) at 8 h, for `CONC(=O)Nc1ccc(-c2sc3c(c2CN(C)Cc2ccccc2)c(=O)n(-c2ccccc2)c(=O)n3Cc2c(F)cccc2F)cc1`
A) 173
